The origin of these recorded values is BigSolDB 2.1.

setup_conditions: in ethyl acetate, 308.15 K
property_name: solubility (mole fraction)

# smi, property_name, data_value
measured = [
    ("O=C(O)c1cccc(C(=O)O)n1", "solubility (mole fraction)", 0.00329),
]

====

setup_conditions: in methanol, 278.15 K
property_name: solubility (mole fraction)

# smi, data_value
data = [
    ("O=C(O)c1cccc(C(=O)O)n1", 0.00449),
]

====

setup_conditions: in toluene, 283.15 K

# smi, solubility (mole fraction)
records = [
    ("O=C(O)c1cccc(C(=O)O)n1", 0.000582),
]

====

setup_conditions: in n-propanol, 283.15 K

# smi, solubility (mole fraction)
data = [
    ("O=C(O)c1cccc(C(=O)O)n1", 0.00361),
]

====

setup_conditions: in THF, 313.15 K

# smi, solubility (mole fraction)
rows = [
    ("O=C(O)c1cccc(C(=O)O)n1", 0.00494),
]

====

setup_conditions: in ethanol, 298.15 K
property_name: solubility (mole fraction)

# smi, property_name, data_value
measured = [
    ("O=C(O)c1cccc(C(=O)O)n1", "solubility (mole fraction)", 0.00702),
]

====

setup_conditions: in formic acid, 283.15 K

# smi, solubility (mole fraction)
data = [
    ("O=C(O)c1cccc(C(=O)O)n1", 0.00305),
]

====

setup_conditions: in 1,4-dioxane, 293.15 K
property_name: solubility (mole fraction)

# smi, property_name, data_value
data = [
    ("O=C(O)c1cccc(C(=O)O)n1", "solubility (mole fraction)", 0.00197),
]

====

setup_conditions: in toluene, 293.15 K

# smi, solubility (mole fraction)
data = [
    ("O=C(O)c1cccc(C(=O)O)n1", 0.00119),
]

====

setup_conditions: in ethanol, 293.15 K

# smi, solubility (mole fraction)
measured = [
    ("O=C(O)c1cccc(C(=O)O)n1", 0.00579),
]

====

setup_conditions: in acetonitrile, 288.15 K

# smi, solubility (mole fraction)
measured = [
    ("O=C(O)c1cccc(C(=O)O)n1", 0.000258),
]

====

setup_conditions: in formic acid, 308.15 K
property_name: solubility (mole fraction)

# smi, data_value
measured = [
    ("O=C(O)c1cccc(C(=O)O)n1", 0.00507),
]

====

setup_conditions: in 1,4-dioxane, 318.15 K
property_name: solubility (mole fraction)

# smi, data_value
data = [
    ("O=C(O)c1cccc(C(=O)O)n1", 0.00393),
]

====

setup_conditions: in ethyl acetate, 303.15 K
property_name: solubility (mole fraction)

# smi, data_value
rows = [
    ("O=C(O)c1cccc(C(=O)O)n1", 0.00215),
]

====

setup_conditions: in methanol, 288.15 K

# smi, solubility (mole fraction)
records = [
    ("O=C(O)c1cccc(C(=O)O)n1", 0.00547),
]

====

setup_conditions: in toluene, 303.15 K
property_name: solubility (mole fraction)

# smi, data_value
measured = [
    ("O=C(O)c1cccc(C(=O)O)n1", 0.00253),
]

====

setup_conditions: in acetonitrile, 313.15 K

# smi, solubility (mole fraction)
measured = [
    ("O=C(O)c1cccc(C(=O)O)n1", 0.000653),
]

====

setup_conditions: in acetonitrile, 293.15 K
property_name: solubility (mole fraction)

# smi, data_value
records = [
    ("O=C(O)c1cccc(C(=O)O)n1", 0.000306),
]
